Target Desc: T1, FcγRIIIA (form not stated) (UniProt P08637 17-208, limits assumed)
T1 construct: also called FcγRIIIA (ELISA)
T1 sequence (P08637 17-208 F176V limits assumed, form in doubt): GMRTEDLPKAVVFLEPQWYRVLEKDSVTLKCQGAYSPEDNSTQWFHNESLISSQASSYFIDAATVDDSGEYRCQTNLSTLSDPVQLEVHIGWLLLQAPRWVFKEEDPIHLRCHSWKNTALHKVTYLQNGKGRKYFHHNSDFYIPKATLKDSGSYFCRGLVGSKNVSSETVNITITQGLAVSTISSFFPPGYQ
Test Name: ELISA
Endpoint Name: fold increase vs WT (x)
Just the number please, in x, no unit attached.

[
  {
    "Binder": "ch4-4-20 P247L, A330T, S440G (antibody) heavy: ASTKGPSVFPLAPSSKSTSGGTAALGCLVKDYFPEPVTVSWNSGALTSGVHTFPAVLQSSGLYSLSSVVTVPSSSLGTQTYICNVNHKPSNTKVDKKVEPKSCDKTHTCPPCPAPELLGGPSVFLFPPKLKDTLMISRTPEVTCVVVDVSHEDPEVKFNWYVDGVEVHNAKTKPREEQYNSTYRVVSVLTVLHQDWLNGKEYKCKVSNKALPTPIEKTISKAKGQPREPQVYTLPPSRDELTKNQVSLTCLVKGFYPSDIAVEWESNGQPENNYKTTPPVLDSDGSFFLYSKLTVDKSRWQQGNVFSCSVMHEALHNHYTQKGLSLSPGK",
    "Obs Value": 0.75
  }
]

Entry ch4-4-20 MgFc39 (E293V, Q295E, A327T) (antibody) heavy: ASTKGPSVFPLAPSSKSTSGGTAALGCLVKDYFPEPVTVSWNSGALTSGVHTFPAVLQSSGLYSLSSVVTVPSSSLGTQTYICNVNHKPSNTKVDKKVEPKSCDKTHTCPPCPAPELLGGPSVFLFPPKPKDTLMISRTPEVTCVVVDVSHEDPEVKFNWYVDGVEVHNAKTKPRVEEYNSTYRVVSVLTVLHQDWLNGKEYKCKVSNKTLPAPIEKTISKAKGQPREPQVYTLPPSRDELTKNQVSLTCLVKGFYPSDIAVEWESNGQPENNYKTTPPVLDSDGSFFLYSKLTVDKSRWQQGNVFSCSVMHEALHNHYTQKSLSLSPGK — recorded fold increase vs WT = 0.4

Entry ch4-4-20 P247L, I253N, K334N (antibody) heavy: ASTKGPSVFPLAPSSKSTSGGTAALGCLVKDYFPEPVTVSWNSGALTSGVHTFPAVLQSSGLYSLSSVVTVPSSSLGTQTYICNVNHKPSNTKVDKKVEPKSCDKTHTCPPCPAPELLGGPSVFLFPPKLKDTLMNSRTPEVTCVVVDVSHEDPEVKFNWYVDGVEVHNAKTKPREEQYNSTYRVVSVLTVLHQDWLNGKEYKCKVSNKALPAPIENTISKAKGQPREPQVYTLPPSRDELTKNQVSLTCLVKGFYPSDIAVEWESNGQPENNYKTTPPVLDSDGSFFLYSKLTVDKSRWQQGNVFSCSVMHEALHNHYTQKSLSLSPGK — recorded fold increase vs WT = 3

Entry ch4-4-20 K246R, S298N, I377F (antibody) heavy: ASTKGPSVFPLAPSSKSTSGGTAALGCLVKDYFPEPVTVSWNSGALTSGVHTFPAVLQSSGLYSLSSVVTVPSSSLGTQTYICNVNHKPSNTKVDKKVEPKSCDKTHTCPPCPAPELLGGPSVFLFPPRPKDTLMISRTPEVTCVVVDVSHEDPEVKFNWYVDGVEVHNAKTKPREEQYNNTYRVVSVLTVLHQDWLNGKEYKCKVSNKALPAPIEKTISKAKGQPREPQVYTLPPSRDELTKNQVSLTCLVKGFYPSDFAVEWESNGQPENNYKTTPPVLDSDGSFFLYSKLTVDKSRWQQGNVFSCSVMHEALHNHYTQKSLSLSPGK — recorded fold increase vs WT = 1

Entry ch4-4-20 K290E, V369A, T393A, P396L (antibody) heavy: ASTKGPSVFPLAPSSKSTSGGTAALGCLVKDYFPEPVTVSWNSGALTSGVHTFPAVLQSSGLYSLSSVVTVPSSSLGTQTYICNVNHKPSNTKVDKKVEPKSCDKTHTCPPCPAPELLGGPSVFLFPPKPKDTLMISRTPEVTCVVVDVSHEDPEVKFNWYVDGVEVHNAKTEPREEQYNSTYRVVSVLTVLHQDWLNGKEYKCKVSNKALPAPIEKTISKAKGQPREPQVYTLPPSRDELTKNQVSLTCLAKGFYPSDIAVEWESNGQPENNYKATPLVLDSDGSFFLYSKLTVDKSRWQQGNVFSCSVMHEALHNHYTQKSLSLSPGK — recorded fold increase vs WT = 1.3

Entry ch4-4-20 F243L, R255L, E318K (antibody) heavy: ASTKGPSVFPLAPSSKSTSGGTAALGCLVKDYFPEPVTVSWNSGALTSGVHTFPAVLQSSGLYSLSSVVTVPSSSLGTQTYICNVNHKPSNTKVDKKVEPKSCDKTHTCPPCPAPELLGGPSVFLLPPKPKDTLMISLTPEVTCVVVDVSHEDPEVKFNWYVDGVEVHNAKTKPREEQYNSTYRVVSVLTVLHQDWLNGKKYKCKVSNKALPAPIEKTISKAKGQPREPQVYTLPPSRDELTKNQVSLTCLVKGFYPSDIAVEWESNGQPENNYKTTPPVLDSDGSFFLYSKLTVDKSRWQQGNVFSCSVMHEALHNHYTQKSLSLSPGK — recorded fold increase vs WT = 1

Entry ch4-4-20 A378V, N390I, V422I (antibody) heavy: ASTKGPSVFPLAPSSKSTSGGTAALGCLVKDYFPEPVTVSWNSGALTSGVHTFPAVLQSSGLYSLSSVVTVPSSSLGTQTYICNVNHKPSNTKVDKKVEPKSCDKTHTCPPCPAPELLGGPSVFLFPPKPKDTLMISRTPEVTCVVVDVSHEDPEVKFNWYVDGVEVHNAKTKPREEQYNSTYRVVSVLTVLHQDWLNGKEYKCKVSNKALPAPIEKTISKAKGQPREPQVYTLPPSRDELTKNQVSLTCLVKGFYPSDIVVEWESNGQPENIYKTTPPVLDSDGSFFLYSKLTVDKSRWQQGNIFSCSVMHEALHNHYTQKSLSLSPGK — recorded fold increase vs WT = 0.5

Entry ch4-4-20 K334E, T359N, T366S (antibody) heavy: ASTKGPSVFPLAPSSKSTSGGTAALGCLVKDYFPEPVTVSWNSGALTSGVHTFPAVLQSSGLYSLSSVVTVPSSSLGTQTYICNVNHKPSNTKVDKKVEPKSCDKTHTCPPCPAPELLGGPSVFLFPPKPKDTLMISRTPEVTCVVVDVSHEDPEVKFNWYVDGVEVHNAKTKPREEQYNSTYRVVSVLTVLHQDWLNGKEYKCKVSNKALPAPIEETISKAKGQPREPQVYTLPPSRDELNKNQVSLSCLVKGFYPSDIAVEWESNGQPENNYKTTPPVLDSDGSFFLYSKLTVDKSRWQQGNVFSCSVMHEALHNHYTQKSLSLSPGK — recorded fold increase vs WT = 1.5
